src = paper PMC10746543

# TARGET OR TEST SYSTEM: UniProtKB Q9NYV4
# Sequence (Q9NYV4 713-1052): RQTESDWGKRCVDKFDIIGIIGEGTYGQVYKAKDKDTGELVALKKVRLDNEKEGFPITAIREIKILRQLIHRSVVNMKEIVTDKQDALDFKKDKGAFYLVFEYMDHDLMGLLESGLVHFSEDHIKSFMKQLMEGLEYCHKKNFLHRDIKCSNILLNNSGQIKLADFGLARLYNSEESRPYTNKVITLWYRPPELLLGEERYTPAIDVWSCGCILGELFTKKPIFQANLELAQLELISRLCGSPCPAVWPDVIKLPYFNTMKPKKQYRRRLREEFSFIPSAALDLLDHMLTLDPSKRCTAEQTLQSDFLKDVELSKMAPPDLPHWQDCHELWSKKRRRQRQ
# Sequence (O75909 1-267 partner limits assumed): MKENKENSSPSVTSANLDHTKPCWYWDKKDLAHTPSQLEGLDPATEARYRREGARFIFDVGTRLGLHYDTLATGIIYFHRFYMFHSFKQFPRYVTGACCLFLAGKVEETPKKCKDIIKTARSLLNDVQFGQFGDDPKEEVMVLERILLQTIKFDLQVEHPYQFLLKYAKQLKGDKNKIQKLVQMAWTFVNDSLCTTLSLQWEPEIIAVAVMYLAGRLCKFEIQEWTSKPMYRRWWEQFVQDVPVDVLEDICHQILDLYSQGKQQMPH
# TEST NAME: Lanthascreen kinase binding assay, CDK12
# CONDITION: Supplementary Table 2; read-out: Lanthascreen IC50 [nM] CDK12
MEASUREMENT TYPE: IC50 (nM)

Use these answered entries as a reference point.
COMPOUND: CC(C)c1nn(-c2c(Cl)cccc2Cl)c2nc(Cc3ccc(OCCO)cc3)[nH]c(=O)c12
IC50 / nM: 31

COMPOUND: Cn1cc(-n2cnc3c(NCc4ccc(-c5ccccn5)cc4)nc(N4CCOCC4)nc32)cn1
IC50 / nM: 2860

COMPOUND: COc1cc2nc(CN3CCc4sccc4C3)[nH]c(=O)c2cc1OC
IC50 / nM: 1940

COMPOUND: Cn1cc(-c2cnn3c(NCc4nc5cc(Cl)c(Cl)cc5[nH]4)nc(N4CCOCC4)nc23)cn1
IC50 / nM: 25

COMPOUND: CN1CCN(c2nc(NCc3nc4c(F)c(F)ccc4[nH]3)n3ncc(Br)c3n2)CC1
IC50 / nM: 134

COMPOUND: CC(C)n1cnc2c(NCc3nc4cc(Cl)c(Cl)cc4[nH]3)nc(N3CCOCC3)nc21
IC50 / nM: 289

A = O=C(CSc1nc2ccccc2[nH]1)Nc1ccc(Cl)cn1
B = Fc1ccc2[nH]c(CNc3nc(N4CCOCC4)nc4c(Br)cnn34)nc2c1F
Request: Given A and B , report the one with the higher recorded IC50. Give the label under which the chosen entry appears.
Result: A
(A: 2670 nM, B: 1 nM)

P = CC[C@H](CO)Nc1nc(NCc2nc3cc(Cl)c(Cl)cc3[nH]2)c2ncn(-c3cnn(C)c3)c2n1
Q = COc1ccc(C)cc1N1C[C@@H](C(=O)Nc2nc3ccccc3[nH]2)CC1=O
R = Cc1ccc(C(=O)N2CSCC2C(=O)Nc2ncc(C)s2)o1 (stereo not shown)
S = CC(C)n1cnc2c(NCc3ccc(-c4ccccn4)cc3)nc(N3CCCC[C@H]3CCO)nc21
Request: I would appreciate it if you could sort these 4 compounds by IC50, starting from the smallest number. The reply should contain the labels ordered as requested.
Result: S, P, Q, R
